Target: GST-Nv-NF-kB (Cys allele) (Nematostella vectensis, UniProt E5G601 2-411)
Sequence: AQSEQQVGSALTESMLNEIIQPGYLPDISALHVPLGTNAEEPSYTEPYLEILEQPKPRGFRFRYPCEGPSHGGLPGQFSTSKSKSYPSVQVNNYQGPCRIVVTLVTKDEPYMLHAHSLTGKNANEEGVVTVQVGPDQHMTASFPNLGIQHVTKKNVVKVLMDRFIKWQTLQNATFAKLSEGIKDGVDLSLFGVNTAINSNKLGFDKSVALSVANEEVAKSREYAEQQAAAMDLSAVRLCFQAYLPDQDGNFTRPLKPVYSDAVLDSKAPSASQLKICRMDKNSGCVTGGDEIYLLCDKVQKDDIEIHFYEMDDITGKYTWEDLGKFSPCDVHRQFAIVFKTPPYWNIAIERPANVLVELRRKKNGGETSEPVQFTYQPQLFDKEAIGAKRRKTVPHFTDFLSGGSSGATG
Assay: protein-binding microarray (PBM); PBM: ~300 nM protein, 6 mM HEPES pH 7.8, 80 mM KCl, 0.5 mM EDTA, 0.5 mM EGTA, 6% glycerol, 35 ng/ul poly-dIdC, 1% milk, 1 h, room temperature; Ap Aiptasia and Nv Nematostella (sea anemones) / Co Capsaspora / Aq Amphimedon (sponge) / Dm Drosophila / Hu human; RHD is the Rel homology domain; high values mean tight binding
Settings: dsDNA, one strand shown
Field: binding signal. Provide a value for each of the sequences that follow.

q: Which binding signal value is on record for CCGATTAACATCAGGAATCTACCTGATGTTAATCGGGTCTTGATTCGCTTGACGCTGCTG ?
a: 1.61 z-score

q: What do you get for CCGATTAACATCAGGATTACCCCTGATGTTAATCGGGTCTTGATTCGCTTGACGCTGCTG ?
a: 4.15 z-score

q: What do you get for CCGATTAACATCACATTTTCCCATGATGTTAATCGGGTCTTGATTCGCTTGACGCTGCTG ?
a: 3.68 z-score

q: What do you get for CCGATTAACATCAGAGACCCCCCTGATGTTAATCGGGTCTTGATTCGCTTGACGCTGCTG ?
a: 3.27 z-score

q: What do you get for CCGATTAACATCAGGTACTTCCATGATGTTAATCGGGTCTTGATTCGCTTGACGCTGCTG ?
a: 2.6 z-score
